- assayExplanation: Hematological toxicity in human CD34-positive hematopoietic stem/progenitor cell supplemented with myeloid lineage assessed as reduction in cell viability incubated for 14 days by luminometric analysis
- Format: cell-based
Reported IC50 at 14 days values are given for each entry in this list.
recordedEndpoint: IC50 at 14 days

> print(dat)
                                  molsmiles    result
1  CC(=O)N1CCC(Nc2cc(C(=O)NC[C@H](O)CN3CCc4ccccc4C3)ncn2)CC1  0.222 µM
2  CC(=O)N1CC2(CC(Nc3cc4c(cn3)C3(CC3)CN(C[C@H](O)CN3CCc5ccccc5C3)C4=O)C2)C1  0.511 µM

* * *

Below: a set of entries, each annotated with reported Cmax.
- assayExplanation: Cmax in Sprague-Dawley rat at 2 mg/kg, iv by LC-MS/MS analysis
- Type: ADME, organism-based
- conditionSet: in vivo
recordedEndpoint: Cmax (ng/mL)

> print(dat)
                                  molsmiles  number
1  CC(=O)N1CCC(Nc2ccc3c(c2)C(=O)N(C[C@H](O)CN2CCc4ccccc4C2)CC32CC2)CC1    1560
2  CC(=O)N1CCC(Nc2ccc3c(c2)C(=O)N(C[C@H](O)CN2CCc4ccccc4C2)CC32CCCC2)CC1     943
3  CC(=O)N1CCC(Nc2cc(C(=O)NC[C@H](O)CN3CCc4ccccc4C3)ncn2)CC1    1830
4  CC(=O)N1CCC(Nc2cc3c(cn2)C2(CC2)CN(C[C@H](O)CN2CCc4ccccc4C2)C3=O)CC1     678
5  CC(=O)N1CCC(Nc2ccc3c(c2)C(=O)N(C[C@H](O)CN2CCc4ccccc4C2)CC32CCC2)CC1    1770
6  CC(=O)N1CC2(CC(Nc3cc4c(cn3)C3(CC3)CN(C[C@H](O)CN3CCc5ccccc5C3)C4=O)C2)C1    1370

* * *

- measuredOn: Protein arginine N-methyltransferase 1 (Homo sapiens)
- Sequence (Q99873 whole entry): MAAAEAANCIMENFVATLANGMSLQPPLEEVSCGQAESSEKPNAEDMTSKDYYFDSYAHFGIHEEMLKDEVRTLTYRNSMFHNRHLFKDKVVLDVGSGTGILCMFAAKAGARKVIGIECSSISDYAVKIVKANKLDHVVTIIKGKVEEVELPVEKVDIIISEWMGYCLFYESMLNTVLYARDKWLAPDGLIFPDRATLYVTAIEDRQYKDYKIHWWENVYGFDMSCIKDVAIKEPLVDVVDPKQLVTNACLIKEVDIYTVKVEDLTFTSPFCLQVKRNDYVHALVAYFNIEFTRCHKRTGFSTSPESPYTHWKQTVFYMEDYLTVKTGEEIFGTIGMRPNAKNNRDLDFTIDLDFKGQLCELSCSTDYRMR
pIC50: −log10 of the molar value.
recordedEndpoint: pIC50

> print(dat)
                                  molsmiles                                measuredon  recordedendpoint  result
1  CC(=O)N1CC2(CC(Nc3cc4c(cn3)C3(CC3)CN(C[C@H](O)CN3CCc5ccccc5C3)C4=O)C2)C1  Protein arginine N-methyltransferase 1 (Homo sapiens)             pIC50  < 5.00

* * *

- assayExplanation: AUC (0 to t) in Sprague-Dawley rat at 10 mg/kg, po by LC-MS/MS analysis
- Type: ADME, organism-based
- conditionSet: Sprague-Dawley, in vivo
Collected AUC(0-t) values appear next to each entry.
recordedEndpoint: AUC(0-t) (ng·h/mL)

> print(dat)
                                  molsmiles  recordedendpoint        u  number
1  CC(=O)N1CCC(Nc2ccc3c(c2)C(=O)N(C[C@H](O)CN2CCc4ccccc4C2)CC32CC2)CC1          AUC(0-t)  ng·h/mL    1460
2  CC(=O)N1CCC(Nc2cc(C(=O)NC[C@H](O)CN3CCc4ccccc4C3)ncn2)CC1          AUC(0-t)  ng·h/mL     404
3  CC(=O)N1CCC(Nc2ccc3c(c2)C(=O)N(C[C@H](O)CN2CCc4ccccc4C2)CC32CCC2)CC1          AUC(0-t)  ng·h/mL    1600
4  CC(=O)N1CC2(CC(Nc3cc4c(cn3)C3(CC3)CN(C[C@H](O)CN3CCc5ccccc5C3)C4=O)C2)C1          AUC(0-t)  ng·h/mL    1030
5  CC(=O)N1CCC(Nc2cc3c(cn2)C2(CC2)CN(C[C@H](O)CN2CCc4ccccc4C2)C3=O)CC1          AUC(0-t)  ng·h/mL     356
